biological target: α-Glucosidase (from Saccharomyces cerevisiae); assay: Assay for α-glucosidase inhibitory activity; conditions: read-out: IC50 α-glucosidase; mean ± SD (n = 3)
readout: IC50 (µM)
State the answer as a number, implicitly in µM.

Bench note: what IC50 did CC1(C)CC[C@]2(C(=O)O)CC[C@]3(C)C(=CC[C@@H]4[C@@]5(C)C[C@@H](O)[C@H](O)C(C)(C)[C@@H]5CC[C@]43C)[C@@H]2C1 show?
34.5

---

readout: pIC50
Scale explanation: pIC50 corresponds to minus log10 of a concentration expressed in moles per litre.

Write down the reported pIC50 of CC1(C)CC[C@]2(C(=O)O)CC[C@]3(C)C(=CC[C@@H]4[C@@]5(C)C[C@@H](O)[C@H](O)C(C)(C)[C@@H]5CC[C@]43C)[C@@H]2C1 , test system: α-amylase (from the porcine pancreas) (Sus scrofa, UniProt P00690).
Sequence (P00690 16-511): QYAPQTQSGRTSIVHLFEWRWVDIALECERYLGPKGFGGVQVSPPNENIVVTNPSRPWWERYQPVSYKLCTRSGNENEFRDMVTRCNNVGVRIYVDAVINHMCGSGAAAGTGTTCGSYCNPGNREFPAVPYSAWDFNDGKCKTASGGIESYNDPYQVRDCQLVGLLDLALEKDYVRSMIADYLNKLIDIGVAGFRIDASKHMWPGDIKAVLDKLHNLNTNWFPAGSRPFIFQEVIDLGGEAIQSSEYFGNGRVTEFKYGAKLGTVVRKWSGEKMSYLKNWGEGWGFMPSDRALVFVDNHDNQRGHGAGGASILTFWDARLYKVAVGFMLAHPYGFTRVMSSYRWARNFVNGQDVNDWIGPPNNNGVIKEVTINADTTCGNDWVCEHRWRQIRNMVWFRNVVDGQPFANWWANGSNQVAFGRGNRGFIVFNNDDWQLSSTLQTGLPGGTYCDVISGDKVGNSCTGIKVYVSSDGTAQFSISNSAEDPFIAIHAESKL
4.17
